Just for reference, PubChem BioAssay (EPA / NIEHS) is where these values come from.

Assay: ATG_BRE_CIS: Attagene CIS-FACTORIAL HepG2 Assay for human Bone Morphogenetic Protein (BMP) Response Element (BRE) (AID 2282933)
Conditions: HepG2 BMP response element reporter, Attagene transcription factor profiling; actives raise or lower the signal
Calls of active or inactive are those of the source. How the source made its calls: active means hit-call score of the fitted dose curve at least 0.9, where 1 is the maximum; inactive means score below 0.9.
Returns: one label drawn from active, inactive

Tell me the assay call for `CCCCCCCCCCCCOC(=O)c1cc(O)c(O)c(O)c1` please. inactive

Tell me the assay call for `CCCCc1oc2ccccc2c1C(=O)c1cc(I)c(OCCN(CC)CC)c(I)c1` please. inactive

Tell me the assay call for `O=S(=O)(c1ccc(OCc2ccccc2)cc1)c1ccccc1O` please. inactive

Tell me the assay call for `C/C=C/C(=O)C1=C(C)CCCC1(C)C` please. active

Tell me the assay call for CCCCCCCCCC=CCC1CC(=O)OC1=O (stereo not drawn) please. inactive

Tell me the assay call for Cc1ccccc1C(OCCN(C)C)c1ccccc1 (stereo not drawn) please. inactive

Tell me the assay call for `CC(=O)CC(C)C` please. inactive

Tell me the assay call for `COC(=O)C(F)(F)C(F)(F)C(F)(F)F` please. inactive

Tell me the assay call for `O=C(F)C(F)(F)C(F)(F)C(F)(F)C(F)F` please. inactive

Tell me the assay call for `c1cc[nH]c1` please. inactive

Tell me the assay call for `C=COC(=O)C(C)(C)CCCCCC` please. inactive

Tell me the assay call for `FCOC(C(F)(F)F)C(F)(F)F` please. inactive

Tell me the assay call for `C=CC(=O)OCC(CO)(COCC(COC(=O)C=C)(COC(=O)C=C)COC(=O)C=C)COC(=O)C=C` please. inactive
